Experiment: yeast display, Sf9 membrane polyspecificity reagent, FACS + sequencing; frameworks hold sequencing errors
property-label: polyreactivity (PSR sort gate)

A selection of reference data follows.
QVQLVESGGGLVQAGGSLRLSCAASGSTFFTNVMGWYRQAPGKERELVAVIRWRGSDTYYADSVKGRFTISRDNAKNTVYLQMNSLKPEDTAVYYCNAIESFYPTTGEQGYSYDYWGQGTQVTVSS | low polyreactivity
QVQLVESGGGLVQAGGSLRLICAASGRTFRFYAKGWYRQAPGKERELVAAITSGGSTTYAYSVKGRFTISRDNAKNTVYLQMNSLKPEDTAVYYCNADRARAYDYWGQGTQVTVSS | high polyreactivity
QVQLVESGGGLVQAGGSLRLSCAASGRIFSYYDMGWYRQAPGKEREFVAGITWNGGSTYYADSVKGRFTISRDNAKNTVYLQMNSLKPEDTAVYYCAAGVWRTRDWTYYYWGQGTQVTVSS | high polyreactivity
QVQLVESGGGLVQAGGSLRLSSAPSGSTFYGYSRGWYRPAPGKERELVAAISSRGGSTKYADSVKGRFTISRDNAKNTVYLQMNSLKPEDTAVYYCAATSRSSRRYYYWGQGTQVTVSS | high polyreactivity

Per the record, `QVQLVESGGALVQAGGSLRLTCAYSGSTSYNNAMGWYRHAPGKERELYASLYMSAGSTYYADSVKGRFKISRDNEKNTVYLQMNSLKPEDTAVYYCAAESVAILGLVDPKGYGYWGQGTQVTVSS` has polyreactivity (PSR sort gate) of low polyreactivity

`QVQLVESGGGLVQAGGSLRLSCAASGYIFRWYAMGWYRQAPGKERELVARITNGARTYYADSVKGRFTISRDNAKNTVYLQMNSLKPEDTAVYYCAATVPPTYRRYYYWGQGTQVTVSS` yielded polyreactivity (PSR sort gate) of high polyreactivity
